experimental-target: TNF-R1–TNFα (Homo sapiens)
Construct: purchased Enzo Life Sciences
Sequence (P01375 85-233 limits assumed): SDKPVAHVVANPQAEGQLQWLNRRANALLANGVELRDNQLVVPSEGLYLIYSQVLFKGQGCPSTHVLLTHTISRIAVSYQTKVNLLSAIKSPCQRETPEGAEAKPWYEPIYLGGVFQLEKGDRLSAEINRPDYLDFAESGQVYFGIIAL
test: cell-free ELISA-type binding inhibition assay, TNF-R1–TNFα
assay-setup: cell-free TNF-R1–TNFα binding inhibition; read-out: TNF IC50
pIC50: −log10 of the molar value.
Catalogue of pIC50 readings, one per entry.

molecule: O=C(Nc1cccc2cccc(S(=O)(=O)O)c12)c1ccc(-c2ccc(NC(=O)c3ccc([N+](=O)[O-])cc3[N+](=O)[O-])cc2)cc1 [Compound 12]
pIC50: 4.21

molecule: O=C(Nc1ccc(-c2ccc(C(=O)Nc3cccc4cccc(S(=O)(=O)O)c34)cc2)cc1)c1ccc(-c2ccc([N+](=O)[O-])cc2)cc1 [Compound 14]
pIC50: 4.15

molecule: COC(=O)c1ccc(C(=O)Nc2ccc(-c3ccc(C(=O)Nc4ccc(S(=O)(=O)O)c5cccc(S(=O)(=O)O)c45)cc3)cc2)cc1 [Compound 11]
pIC50: 3.34

molecule: COC(=O)c1cccc2c(NC(=O)c3ccc(-c4ccc(NC(=O)c5ccc([N+](=O)[O-])cc5)cc4)cc3)cccc12 [Compound 9]
pIC50: 3.10

molecule: O=C(Nc1ccc(-c2ccc(C(=O)Nc3cccc4cccc(S(=O)(=O)O)c34)cc2)nc1)c1ccc([N+](=O)[O-])cc1 [Compound 18]
pIC50: 4.33

molecule: COC(=O)c1ccc(C(=O)Nc2ccc(-c3ccc(C(=O)Nc4cccc5cccc(S(=O)(=O)O)c45)cc3)cc2)cc1[N+](=O)[O-] [Compound 13]
pIC50: 3.17

molecule: O=C(Nc1ccc(-c2ccc(C(=O)Nc3ccc(S(=O)(=O)O)c4cccc(S(=O)(=O)O)c34)cc2)cc1)c1ccc([N+](=O)[O-])cc1 [Compound 10]
pIC50: 3.16

molecule: Cc1cc(NC(=O)c2ccc([N+](=O)[O-])cc2)ccc1-c1ccc(C(=O)Nc2cccc3cccc(S(=O)(=O)O)c23)cc1C [Compound 16]
pIC50: 4.21

----------
experimental-target: BAFFR–BAFF (Homo sapiens)
Construct: purchased Enzo Life Sciences
Sequence (Q9Y275 134-285 limits assumed): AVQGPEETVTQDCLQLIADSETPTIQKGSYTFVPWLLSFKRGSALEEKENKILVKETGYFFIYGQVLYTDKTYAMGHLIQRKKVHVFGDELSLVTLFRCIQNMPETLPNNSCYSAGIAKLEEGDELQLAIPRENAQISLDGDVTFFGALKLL
test: cell-free ELISA-type binding inhibition assay, BAFFR–BAFF
test-readout: IC50 (nM)

compound: O=C(Nc1ccc(-c2ccc(C(=O)Nc3cccc4cccc(S(=O)(=O)O)c34)cc2)cc1)c1ccc(-c2ccc([N+](=O)[O-])cc2)cc1 [Compound 14]
unit-text: nM
assay-value: 784

compound: COC(=O)c1ccc(-c2ccc(C(=O)Nc3ccc(-c4ccc(C(=O)Nc5cccc6cccc(S(=O)(=O)O)c56)cc4)cc3)cc2)cc1 [Compound 15]
unit-text: nM
assay-value: 1520

compound: O=C(Nc1cccc2cccc(S(=O)(=O)O)c12)c1ccc(-c2ccc(NC(=O)c3ccc([N+](=O)[O-])cc3[N+](=O)[O-])cc2)cc1 [Compound 12]
unit-text: nM
assay-value: 38100

----------
Test system: CD154-induced NF-κB activation in CD40 sensor cells
test: CD40 sensor cell assay (HEK Blue CD40, SEAP reporter)
Assay type: cell-based, human
assay-setup: Homo sapiens, CD154 100 ng/mL, 24 h
pIC50: −log10 of the molar value.
Each record here notes measured pIC50.

sample-smiles: O=C(Nc1ccc(-c2ccc(C(=O)Nc3cccc4cccc(S(=O)(=O)O)c34)cc2)cc1)c1ccc(-c2ccc([N+](=O)[O-])cc2)cc1
pIC50: 4.95
//
sample-smiles: COC(=O)c1ccc(-c2ccc(C(=O)Nc3ccc(-c4ccc(C(=O)Nc5cccc6cccc(S(=O)(=O)O)c56)cc4)cc3)cc2)cc1
pIC50: 5.22
//
sample-smiles: O=C(Nc1ccc(-c2ccc(C(=O)Nc3cccc4cccc(S(=O)(=O)O)c34)cc2)cc1)c1ccc([N+](=O)[O-])cc1
pIC50: 4.70
//
sample-smiles: O=C(Nc1ccc(-c2ccc(C(=O)Nc3cccc4cccc(S(=O)(=O)O)c34)cc2)nc1)c1ccc([N+](=O)[O-])cc1
pIC50: 5.06

----------
experimental-target: TNF-R1–TNFα (Homo sapiens)
Construct: purchased Enzo Life Sciences
test: cell-free ELISA-type binding inhibition assay, TNF-R1–TNFα
assay-setup: cell-free TNF-R1–TNFα binding inhibition; read-out: TNF IC50
pIC50: −log10 of the molar value.
Entries annotated with measured pIC50
test-readout: pIC50

sample-smiles: O=C(Nc1ccc2cc(C(=O)Nc3cccc4cccc(S(=O)(=O)O)c34)ccc2c1)c1ccc([N+](=O)[O-])cc1
censoring-operator: =
assay-value: 3.93
//
sample-smiles: O=C(Nc1ccc(-c2ccc(C(=O)Nc3cccc4c(S(=O)(=O)O)cccc34)cc2)cc1)c1ccc([N+](=O)[O-])cc1
censoring-operator: =
assay-value: 3.26
//
sample-smiles: COC(=O)c1ccc(C(=O)Nc2ccc(-c3ccc(C(=O)Nc4cccc5cccc(S(=O)(=O)O)c45)cc3)nc2)cc1
censoring-operator: =
assay-value: 3.74
//
sample-smiles: O=C(Nc1ccc(-c2ccc(C(=O)Nc3cccc4cccc(S(=O)(=O)O)c34)cc2)cc1)c1ccc([N+](=O)[O-])cc1
censoring-operator: <
assay-value: 3.00
//
sample-smiles: COC(=O)c1ccc(-c2ccc(C(=O)Nc3ccc(-c4ccc(C(=O)Nc5cccc6cccc(S(=O)(=O)O)c56)cc4)cc3)cc2)cc1
censoring-operator: =
assay-value: 4.58
//
sample-smiles: O=C(Nc1ccc(-c2ccc(C(=O)Nc3cccc4cccc(S(=O)(=O)O)c34)cc2)cc1)c1ccc(C(F)(F)F)cc1
censoring-operator: =
assay-value: 4.21

----------
Reported IC50 for target or system BAFFR–BAFF (Homo sapiens), by entry.

sample-smiles: O=C(Nc1ccc(-c2ccc(C(=O)Nc3ccc(S(=O)(=O)O)c4cccc(S(=O)(=O)O)c34)cc2)cc1)c1ccc([N+](=O)[O-])cc1
IC50: 440 µM
//
sample-smiles: COC(=O)c1cccc2c(NC(=O)c3ccc(-c4ccc(NC(=O)c5ccc([N+](=O)[O-])cc5)cc4)cc3)cccc12
IC50: 686 µM
//
sample-smiles: COC(=O)c1ccc(C(=O)Nc2ccc(-c3ccc(C(=O)Nc4ccc(S(=O)(=O)O)c5cccc(S(=O)(=O)O)c45)cc3)cc2)cc1
IC50: 540 µM
//
sample-smiles: O=C(Nc1ccc(-c2ccc(C(=O)Nc3cccc4cccc(S(=O)(=O)O)c34)cc2)nc1)c1ccc([N+](=O)[O-])cc1
IC50: 8.07 µM
//
sample-smiles: O=C(Nc1ccc(-c2ccc(C(=O)Nc3cccc4cccc(S(=O)(=O)O)c34)cc2)cc1)c1ccc([N+](=O)[O-])cc1
IC50: 0.328 µM

----------
experimental-target: CD40–CD154 (CD40L) (Homo sapiens, UniProt P29965)
Construct: purchased Enzo Life Sciences
Sequence (P29965 116-261 limits assumed): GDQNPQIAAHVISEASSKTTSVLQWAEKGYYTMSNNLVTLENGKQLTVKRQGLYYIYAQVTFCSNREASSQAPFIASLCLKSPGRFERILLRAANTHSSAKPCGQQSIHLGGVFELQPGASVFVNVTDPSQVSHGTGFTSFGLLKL
test: cell-free ELISA-type binding inhibition assay, CD40–CD154
assay-setup: cell-free binding inhibition assay; read-out: CD40–CD154 IC50
pIC50: −log10 of the molar value.

sample-smiles: COC(=O)c1ccc(C(=O)Nc2ccc(-c3ccc(C(=O)Nc4ccc(S(=O)(=O)O)c5cccc(S(=O)(=O)O)c45)cc3)cc2)cc1
pIC50: 4.22

----------
Listed next: entries and their corresponding pIC50.
experimental-target: CD40–CD154 (CD40L) (Homo sapiens, UniProt P29965)
Construct: purchased Enzo Life Sciences
test: cell-free ELISA-type binding inhibition assay, CD40–CD154
assay-setup: cell-free CD40–CD154 binding inhibition; read-out: CD40 IC50
pIC50: −log10 of the molar value.
test-readout: pIC50

sample-smiles: O=C(Nc1ccc(-c2ccc(C(=O)Nc3cccc4cccc(S(=O)(=O)O)c34)cc2)cc1)c1ccc(-c2ccc([N+](=O)[O-])cc2)cc1
assay-value: 7.70

sample-smiles: O=C(Nc1cccc2cccc(S(=O)(=O)O)c12)c1ccc(-c2ccc(NC(=O)c3ccc([N+](=O)[O-])cc3[N+](=O)[O-])cc2)cc1
assay-value: 4.30

sample-smiles: O=C(Nc1ccc(-c2ccc(C(=O)Nc3cccc4c(S(=O)(=O)O)cccc34)cc2)cc1)c1ccc([N+](=O)[O-])cc1
assay-value: 6.52

sample-smiles: COC(=O)c1ccc(-c2ccc(C(=O)Nc3ccc(-c4ccc(C(=O)Nc5cccc6cccc(S(=O)(=O)O)c56)cc4)cc3)cc2)cc1
assay-value: 7.72

sample-smiles: COC(=O)c1ccc(C(=O)Nc2ccc(-c3ccc(C(=O)Nc4cccc5cccc(S(=O)(=O)O)c45)cc3)cc2)cc1[N+](=O)[O-]
assay-value: 6.41

sample-smiles: O=C(Nc1ccc(-c2ccc(C(=O)Nc3ccc(S(=O)(=O)O)c4cccc(S(=O)(=O)O)c34)cc2)cc1)c1ccc([N+](=O)[O-])cc1
assay-value: 4.17

sample-smiles: COC(=O)c1ccc(C(=O)Nc2ccc(-c3ccc(C(=O)Nc4ccc(S(=O)(=O)O)c5cccc(S(=O)(=O)O)c45)cc3)cc2)cc1
assay-value: 4.22

sample-smiles: O=C(Nc1ccc2cc(C(=O)Nc3cccc4cccc(S(=O)(=O)O)c34)ccc2c1)c1ccc([N+](=O)[O-])cc1
assay-value: 4.24

sample-smiles: COC(=O)c1cccc2c(NC(=O)c3ccc(-c4ccc(NC(=O)c5ccc([N+](=O)[O-])cc5)cc4)cc3)cccc12
assay-value: 4.25

sample-smiles: O=C(Nc1ccc(-c2ccc(C(=O)Nc3cccc4cccc(S(=O)(=O)O)c34)cc2)cc1)c1ccc([N+](=O)[O-])cc1
assay-value: 7.06

sample-smiles: O=C(Nc1ccc(-c2ccc(C(=O)Nc3cccc4cccc(S(=O)(=O)O)c34)cc2)cc1)c1ccc(C(F)(F)F)cc1
assay-value: 4.24

sample-smiles: COC(=O)c1ccc(C(=O)Nc2ccc(-c3ccc(C(=O)Nc4cccc5cccc(S(=O)(=O)O)c45)cc3)nc2)cc1
assay-value: 5.62

sample-smiles: O=C(Nc1ccc(-c2ccc(C(=O)Nc3cccc4cccc(S(=O)(=O)O)c34)cc2)nc1)c1ccc([N+](=O)[O-])cc1
assay-value: 5.87

sample-smiles: Cc1cc(NC(=O)c2ccc([N+](=O)[O-])cc2)ccc1-c1ccc(C(=O)Nc2cccc3cccc(S(=O)(=O)O)c23)cc1C
assay-value: 4.35

From: paper PMC5978685
